test: JC-1 mitochondrial potential readout, lung cancer cells – cell-based, A549, JC-1 fluorescence, basal, 24 h, 100 nL, profiling panel (AID 1138); details: higher = more signal;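 also: A549 lung adenocarcinoma cells under basal conditions with no added stimulus; test concentration not given here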
# z-score >= 0.5 gives fulfilled, anything below gives not fulfilled

In: Check this compound for z-score at or above 0.5: COC(=O)NCC=Cc1nc(CCC=CC(=O)O[C@H]2CC3CC(=O)O[C@@H](C=CCC(C)C)C[C@@H]4CC[C@H](C)[C@@H](C[C@@H](OC)C[C@H](C2)O3)O4)co1
Out: fulfilled

In: Another compound to check: COC(=O)[C@@]1(Cc2ccccc2)[C@H]2c3cc(C(=O)N(C)C)[nH]c3C[C@H]2CN1C(=O)c1ccccc1
Out: fulfilled

In: Another compound to check: C=C(CC1(CNP(=O)(c2ccccc2)c2ccccc2)CC1)c1ccccc1
Out: fulfilled

In: Another compound to check: COC(=O)C1(C)C=C2C(=C(C)C(=O)C2C)CN1 (stereo not given)
Out: not fulfilled

In: Another compound to check: CCCc1cc2c(n1Cc1ccc(C)cc1)C(C)C1CN(C(=O)c3ccccc3)C(C)(C(=O)OC)C21 (stereo not given)
Out: fulfilled

In: Another compound to check: COC(=O)[C@@]1(Cc2ccc(F)cc2)[C@H]2c3cc(C(=O)N(C)C)[nH]c3C[C@H]2CN1C(=O)c1ccccc1
Out: fulfilled

In: Another compound to check: COC(=O)[C@H]1[C@@H](O)[C@@]2(O)c3c(OC)cc(OC)cc3O[C@@]2(c2ccc(OC)cc2)[C@@H]1c1ccccc1
Out: fulfilled

In: Another compound to check: COC(=O)[C@H]1[C@H](c2ccccc2)C(=O)[C@]2(O)c3ccccc3O[C@@]12c1ccccc1
Out: fulfilled

In: Another compound to check: OCc1ccc(C2=CC(c3cccs3)N(Cc3cccc(OC(F)(F)F)c3)CC2)cc1 (stereo not given)
Out: fulfilled

In: Another compound to check: C[C@@H]1OC=C2[C@@H](O)[C@H]3O[C@H]3C(=O)[C@]23[C@H]1[C@H]1C2=C([C@@H](O)[C@H]4O[C@H]4C2=O)[C@@H]3O[C@@H]1C
Out: fulfilled

In: Another compound to check: CCCC=C(CCC)[C@@H](NP(=O)(c1ccccc1)c1ccccc1)c1ccccc1
Out: fulfilled

In: Another compound to check: CCOC(=O)[C@H]1CC=C2C(=O)Oc3ccc(Br)cc3[C@@H]21
Out: not fulfilled

In: Another compound to check: OCc1ccc(C2=CC(C3CC3)N(Cc3sc4ccccc4c3Cl)CC2)cc1 (stereo not given)
Out: fulfilled

In: Another compound to check: O=P(c1ccccc1)(c1ccccc1)N1CC2(CC2)CC(O)(c2ccccc2)C1 (stereo not given)
Out: fulfilled

In: Another compound to check: CCCc1cc2c(n1CCO)C(C)C1CN(C(=O)c3ccccc3)C(C)(C(=O)OC)C21 (stereo not given)
Out: fulfilled

In: Another compound to check: COC(=O)[C@@]1(Cc2ccccc2)[C@H]2c3cc(C(=O)N(C)C)n(C)c3C[C@H]2CN1C(=O)c1ccccc1
Out: not fulfilled

In: Another compound to check: COC(=O)[C@H]1C(=O)c2ccccc2O[C@@](C(=O)OC)(c2ccccc2)[C@@H]1c1ccccc1
Out: not fulfilled

In: Another compound to check: CCCc1cc2c(n1Cc1ccco1)C(C)C1CN(C(=O)c3ccccc3)C(C)(C(=O)OC)C21 (stereo not given)
Out: not fulfilled

In: Another compound to check: CCCC[C@@H]1C[C@H]1[C@@H](NP(=O)(c1ccccc1)c1ccccc1)c1ccc(Cl)cc1
Out: not fulfilled

In: Another compound to check: CCc1cc2c(nc1CC)CCN(CCC(C)=NOC)C2
Out: not fulfilled
